- Study system: DYRK3 (Homo sapiens, UniProt O43781)
- Sequence (O43781 1-588): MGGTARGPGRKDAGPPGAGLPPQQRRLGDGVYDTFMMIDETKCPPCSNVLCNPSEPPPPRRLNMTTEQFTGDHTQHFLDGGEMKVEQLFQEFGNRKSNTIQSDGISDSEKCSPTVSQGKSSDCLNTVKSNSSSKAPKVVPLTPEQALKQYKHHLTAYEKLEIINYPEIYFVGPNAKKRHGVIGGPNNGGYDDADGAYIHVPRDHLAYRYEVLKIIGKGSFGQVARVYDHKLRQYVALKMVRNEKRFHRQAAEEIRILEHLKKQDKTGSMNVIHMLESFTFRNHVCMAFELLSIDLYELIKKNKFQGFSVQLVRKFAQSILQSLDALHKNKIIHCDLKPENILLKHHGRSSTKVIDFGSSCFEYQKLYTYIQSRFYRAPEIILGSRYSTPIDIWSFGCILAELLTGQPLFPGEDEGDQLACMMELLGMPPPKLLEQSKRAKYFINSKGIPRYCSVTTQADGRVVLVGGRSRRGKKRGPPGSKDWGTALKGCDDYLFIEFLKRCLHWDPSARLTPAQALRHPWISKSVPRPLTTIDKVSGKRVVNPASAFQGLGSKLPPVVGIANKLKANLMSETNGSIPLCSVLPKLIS
- Assay info: FRET-based coupled-enzyme protein kinase inhibition assay
- Type: biochemical
- Conditions used: compound at 10 µM, 1% DMSO
Outcome measure: inhibition at 10 µM (%)

Worked set:
                                   compound  readout_value
0  Nc1ncnc2c1ncn2[C@@H]1O[C@H](COC(=O)NCCCc2nc3ccccc3[nH]2)[C@@H](O)[C@H]1O [Compound C1]             12
1  Nc1ncnc2c1ncn2[C@@H]1O[C@H](COC(=O)N2CCN(CCc3ccccc3)CC2)[C@@H](O)[C@H]1O [Compound C26]              2
2  C[C@@H](NC(=O)OC[C@H]1O[C@@H](n2cnc3c(N)ncnc32)[C@H](O)[C@@H]1O)c1ccc(Cl)cc1 [Compound C4]              5

(A) Nc1ncnc2c1ncn2[C@@H]1O[C@H](COC(=O)N[C@@H]2CCN(Cc3ccccc3)C2)[C@@H](O)[C@H]1O [Compound C10]
(B) Nc1ncnc2c1ncn2[C@@H]1O[C@H](COC(=O)N2CCN(C(=O)N3CCOCC3)CC2)[C@@H](O)[C@H]1O [Compound C89]
(C) Nc1ncnc2c1ncn2[C@@H]1O[C@H](COC(=O)NC[C@H](O)CO)[C@@H](O)[C@H]1O [Compound C8]
(D) Nc1ncnc2c1ncn2[C@@H]1O[C@H](COC(=O)N2CCS(=O)(=O)CC2)[C@@H](O)[C@H]1O [Compound C100]
(E) CS(=O)(=O)N1CC2(CCN(C(=O)OC[C@H]3O[C@@H](n4cnc5c(N)ncnc54)[C@H](O)[C@@H]3O)CC2)c2ccccc21 [Compound C98]
Rank ascending by inhibition at 10 µM. Answer by writing out the labels in the requested order. B, E, A, D, C
